# experiment-summary: Quantitative High-Throughput drug screen in 47 multiple myeloma cell lines against the NCATS MIPE library collection: OPM2_DSMZ cell viability assay (AID 1919872); also: nearly all actives have a fitted effect of over 30% in size; also: potency is read from the fitted curve at half-maximal effect
# assay-context: OPM2 myeloma viability, CellTiter-Glo ATP luminescence, 48 h; series mostly up to 45.8 µM
Results filed as inconclusive are left out. Activity calls are given as the source filed them. Calls follow the shape of the dose curve; as a rule, active = well fitted cell-killing curve with a large enough effect; inconclusive = small, poorly fitted or top-dose-only effect, or effect the other way; inactive = no such curve, though single readings can be large or run the other way.
observed-property: Potency

INSERT INTO assay_data (compound, measurement) VALUES
  ('COc1cccc2c1C(=O)c1c(O)c3c(c(O)c1C2=O)C[C@@](O)(C(=O)CO)C[C@@H]3O[C@H]1C[C@H](N)[C@@H](O)[C@H](C)O1', '2090 nM (active)'),
  ('COc1ccnc2[nH]cc(C(=O)C(=O)N3CCN(C(=O)c4ccccc4)C[C@@H]3C)c12', 'inactive'),
  ('CS(=O)(=O)N1CCc2c(-c3cnc(N)nc3)nc(N3CCOCC3)nc21', '1050 nM (active)'),
  ('C[C@H](NC(=O)Cc1cc(F)cc(F)c1)C(=O)N[C@H](C(=O)OC(C)(C)C)c1ccccc1', 'inactive');

---

# experiment-summary: Quantitative High-Throughput drug screen in 47 multiple myeloma cell lines against the NCATS MIPE library collection: PE2_PLB cell viability assay (AID 1919869); also: nearly all actives have a fitted effect of over 35% in size
# assay-context: PE2_PLB myeloma cells viability, ATP luminescence, 48 h; series mostly up to 45.8 µM
Records with an inconclusive call do not appear. Calls of active or inactive are those of the source. Calls come from the whole dose curve; as a rule, active = well fitted cell-killing curve with a large enough effect; inconclusive = small, poorly fitted or top-dose-only effect, or effect the other way; inactive = no such curve, though single readings can be large or run the other way.
Labels: YES (active), NO (inactive)

INSERT INTO results (molecule, classification) VALUES
  ('C=CC(=O)Nc1cc(NC(=O)c2ccc(C)c(NC(=O)c3ccno3)c2)cc(C(F)(F)F)c1', 'YES'),
  ('C[C@H](CCC(=O)O)[C@H]1CC[C@H]2[C@@H]3[C@H](O)C[C@@H]4C[C@H](O)CC[C@]4(C)[C@@H]3CC[C@]12C', 'NO'),
  ('OCCNC1CCCc2c1[nH]c1ccc(-c3ccccc3)cc21 (stereo not drawn)', 'YES'),
  ('Cc1ccc(-n2[nH]c(C)c(N=Nc3cccc(-c4cccc(C(=O)O)c4)c3O)c2=O)cc1C', 'YES'),
  ('Cc1cnn(C)c1C(=O)Nc1cc(Nc2ccc3c(C=Cc4ccccn4)n[nH]c3c2)ccc1F', 'YES'),
  ('NC(=O)Nc1sc(-c2ccc(F)cc2)cc1C(N)=O', 'YES'),
  ('COc1cc(CCc2cc(NC(=O)c3ccc(N4C[C@@H](C)N[C@@H](C)C4)cc3)n[nH]2)cc(OC)c1', 'YES'),
  ('COC1=C2C[C@@H](C)C[C@H](OC)[C@@H](O)[C@@H](C)C=C(C)[C@H](OC(N)=O)[C@@H](OC)C=CC=C(C)C(=O)NC(=CC1=O)C2=O', 'YES');

---

# experiment-summary: qHTS of pediatric cancer cell lines to identify multiple opportunities for drug repurposing: Confirmatory screen for control Hh wild type fibroblast cells (AID 1347121); also: nearly all actives have a fitted effect of over 70% in size
# assay-context: viability qHTS; series mostly up to 45.9 µM
Inconclusive results are not listed. Calls of active or inactive are those of the source. Calls follow the shape of the dose curve; as a rule, active = well fitted cell-killing curve with a large enough effect; inconclusive = small, poorly fitted or top-dose-only effect, or effect the other way; inactive = flat fitted curve, though single readings scatter.
Outcomes: T (active), F (inactive)

INSERT INTO assay_data (molecule, classification) VALUES
  ('Cc1nc(NC(=O)N2CCC[C@@H]2C(N)=O)sc1-c1ccnc(C(C)(C)C(F)(F)F)c1', 'F'),
  ('CC(=O)N1CCN(c2ccc(OCc3nn(C)c(C)c3-c3cccc4c(CCCOc5cccc6ccccc56)c(C(=O)O)n(Cc5cccnc5)c34)cc2)CC1', 'F'),
  ('CC(C)C[C@H](NC(=O)CNC(=O)c1cc(Cl)ccc1Cl)B1OC(=O)CC(CC(=O)O)(C(=O)O)O1 (some centres undefined)', 'T'),
  ('Cc1ncc(-c2ccnc(Nc3ccc(S(C)(=O)=O)cc3)n2)n1C(C)C', 'F');
